Hey, just so you know, these numbers are from PubChem BioAssay (EPA / NIEHS).

# experiment.description: Tanguay_ZF_120hpf_PE_legacy: (Legacy) Oregon State University Tanguay Lab 120 Hour Post-fertilization zebrafish Assay for Pericardial Edema (AID 2283640)
# Experimental: Tanguay_ZF_120hpf_legacy is a whole embryo, multiplexed endpoint assay using zebrafish larvae exposed for 120 hours post fertilization on a 96-well plate.Tanguay_ZF_120hpf_PE_legacy is one of one assay component(s) measured or calculated from the Tanguay_ZF_120hpf_legacy assay. […] This assay endpoint, Tanguay_ZF_120hpf_PE_legacy, was analyzed in the positive analysis fitting direction relative to DMSO as the negative control and baseline of activity. […]
Results filed as inconclusive are left out. Activity calls are given as the source filed them. Rule for the calls: active = hit-call score of the fitted dose curve at least 0.9, where 1 is the maximum; inconclusive = response in the unintended direction; inactive = score below 0.9.
A correct response names exactly one class from active, inactive

Use these answered entries as a reference point.
Fc1ccccc1[C@@H](F)COC1CCC(Nc2ncnc3[nH]ncc23)CC1 (stereo partly specified) | active
O=C1CCCCCN1 | inactive
CCN(C(=O)c1cc(C)cc(OC[C@H](C)Nc2ccncc2)c1)C(C)C | inactive
CC(C)c1cccc(C(C)C)c1N1C(=O)c2ccc(O)cc2C1=O | inactive

Task item: Hi, do you know how CC/C(=C\C(=N/O)C(N)=O)C(C)[N+](=O)[O-] (stereo unspecified) came out in this test?
Reply: inactive

Task item: What did the test return for O=c1[nH]c2ccc(S(=O)CCN3CCC(Cc4ccc(F)cc4)CC3)cc2o1 (stereo unspecified) ?
Reply: inactive

* * *

# Read-out: CYP4A11 (gene 1579)
# experiment.description: LTEA_HepaRG_CYP4A11: Life Technologies and Expression Analysis (LTEA) Assay for CYP4A11 using HepaRG (AID 2283486)
# measurement.setup: mRNA level, 48 h; actives raise or lower the signal
# Description: LTEA_HepaRG is a cell based, multiplexed-readout assay that uses HepaRG, a human liver cell line, with measurements taken at 48 hours after chemical dosing on a 96-well plate.LTEA_HepaRG_CYP4A11 is one of 102 assay component(s) measured in the LTEA HepaRG cell culture assay. It is a marker of NR mediated metabolism.Data from the assay component LTEA_HepaRG_CYP4A11 was analyzed into 1 endpoint. […]
Activity calls are given as the source filed them. Rule for the calls: active = hit-call score of the fitted dose curve at least 0.9, where 1 is the maximum; inactive = score below 0.9.
Your answer must be one of the following: active, inactive

CCOCCOCCOCCO | inactive
O=C1CCCCCN1 | inactive
COCCOCCOCCOC | inactive
CC[C@H]1CC[C@H](NCc2cc3c(cc2OC)[C@H]2C[C@H]2C(=O)N3C)[C@H](c2ccccc2)N1 | active
CCOC(=O)c1ccc(C2CCC(NC[C@H](O)COc3ccc(O)c(NS(C)(=O)=O)c3)CC2)cc1 (stereo partly specified) | inactive

Now for another entry.
Task item: GET /call?item= O=c1n(CC2CO2)c(=O)n(CC2CO2)c(=O)n1CC1CO1 (stereo unspecified) returns the recorded outcome of this test.
Reply: inactive

* * *

# experiment.description: Tanguay_ZF_120hpf_EYE_legacy: (Legacy) Oregon State University Tanguay Lab 120 Hour Post-fertilization zebrafish Assay for Eye Malformation (AID 2283636);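 note: binary presence or absence of eye malformation scored by brightfield in 120 hpf larvae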
Inconclusive results are not listed. The source made the active and inactive calls. Rule for the calls: active = hit-call score of the fitted dose curve at least 0.9, where 1 is the maximum; inconclusive = response in the unintended direction; inactive = score below 0.9.
// allowed return values: YES (active), NO (inactive)

CC(C)CCO | NO

Task item: What is the recorded call for this compound in the test? O=c1[nH]c2ccc(S(=O)CCN3CCC(Cc4ccc(F)cc4)CC3)cc2o1 (centres undefined)
Reply: NO

Task item: Tell me the assay call for C1N2CN3CN1CN(C2)C3 please.
Reply: NO

Task item: Write down the call the test reported for this compound. Item: Cc1ccc(N)cc1O
Reply: NO

Task item: Recorded call for CC/C(=C\C(=N/O)C(N)=O)C(C)[N+](=O)[O-] (centres undefined) ?
Reply: NO

Task item: # outcome recorded in this test, key = COCCOc1cc2cc(C(=O)NC3CCN(C(C)C)CC3)n(CC(=O)Nc3ccc(Cl)cn3)c2cn1
Reply: NO

* * *

# target.entity: Estrogen receptor (Homo sapiens) (UniProt P03372)
# Sequence (P03372 whole entry, looked up): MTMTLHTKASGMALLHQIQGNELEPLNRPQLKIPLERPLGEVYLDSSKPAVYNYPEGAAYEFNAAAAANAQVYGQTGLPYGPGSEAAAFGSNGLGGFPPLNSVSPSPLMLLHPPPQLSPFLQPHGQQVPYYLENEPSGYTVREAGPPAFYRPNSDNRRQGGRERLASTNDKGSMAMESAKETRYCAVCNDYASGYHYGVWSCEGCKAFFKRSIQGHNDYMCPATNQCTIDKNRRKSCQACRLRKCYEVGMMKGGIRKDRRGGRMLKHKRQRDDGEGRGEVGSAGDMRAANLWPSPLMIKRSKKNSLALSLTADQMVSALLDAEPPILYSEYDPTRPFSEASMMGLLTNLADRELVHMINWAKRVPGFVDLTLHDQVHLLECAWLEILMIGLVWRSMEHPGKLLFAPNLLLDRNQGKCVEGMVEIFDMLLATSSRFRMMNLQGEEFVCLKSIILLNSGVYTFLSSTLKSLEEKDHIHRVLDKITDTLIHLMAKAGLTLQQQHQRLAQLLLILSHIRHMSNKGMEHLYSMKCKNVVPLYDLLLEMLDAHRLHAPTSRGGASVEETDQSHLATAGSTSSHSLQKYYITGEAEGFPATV
# experiment.description: ATG_ERa_TRANS: Attagene TRANS-FACTORIAL HepG2 Assay for human Estrogen Receptor alpha (ERa) (AID 2282970)
# measurement.setup: HepG2 Attagene TRANS ERa GAL4 reporter, mRNA
Records with an inconclusive call do not appear. Active and inactive are the calls of the source. Rule for the calls: active = hit-call score of the fitted dose curve at least 0.9, where 1 is the maximum; inconclusive = response in the unintended direction; inactive = score below 0.9.
reported.endpoint: outcome

CC/C(=C\C(=N/O)C(N)=O)C(C)[N+](=O)[O-] (stereo not drawn) | inactive
O=C(O)c1cccc(Oc2ccccc2)c1 | inactive
CC(C)CCO | inactive

* * *

# Read-out: CYP4A11 (gene 1579)
# experiment.description: LTEA_HepaRG_CYP4A11: Life Technologies and Expression Analysis (LTEA) Assay for CYP4A11 using HepaRG (AID 2283486)
# measurement.setup: mRNA level, 48 h; actives raise or lower the signal
Active and inactive are the calls of the source. Rule for the calls: active = hit-call score of the fitted dose curve at least 0.9, where 1 is the maximum; inactive = score below 0.9.
Permitted responses: T = active, F = inactive

O=c1[nH]c2ccc(S(=O)CCN3CCC(Cc4ccc(F)cc4)CC3)cc2o1 (stereo not given) | T
Oc1ccc2c(c1)-c1ccccc1C2 | F
CC(C)(O)c1coc(S(=O)(=O)NC(=O)Nc2c3c(cc4c2CCC4)CCC3)c1 | F

Task item: Field: outcome | Entry: CC1=CC(=O)CC(C)(C)C1
Reply: F

Task item: Recorded test outcome, item CCOC(=O)COc1ccc2c(c1)CC(NCC(O)c1cccc(Cl)c1)CC2 (stereo not given)
Reply: F

* * *

# Read-out: Transforming growth factor beta 1 (TGFb1), TGFB1 (gene 7040)
# experiment.description: BSK_KF3CT_TGFb1: BioMAP Diversity Plus: KF3CT Assay for Transforming growth factor beta 1 (TGFb1) Biomarker Activity (AID 2283072)
# measurement.setup: primary human keratinocytes with fibroblasts; actives raise or lower the signal
Activity calls are given as the source filed them. The calls were made as follows: active = hit-call score of the fitted dose curve at least 0.9, where 1 is the maximum; inactive = score below 0.9.
reported.endpoint: AC50

Some entries whose results are on file:
CC(C)CCCCCCCOC(=O)CCCCC(=O)OCCCCCCCC(C)C | inactive
CC1=CC(=O)CC(C)(C)C1 | inactive
CC(C)=CCC/C(C)=C/CO | inactive
CCC(C)(C)C(=O)O[C@H]1C[C@@H](C)C=C2C=C[C@H](C)[C@H](CC[C@@H]3C[C@@H](O)CC(=O)O3)[C@H]21 | 31.4 µM (active)
CCCCCCCCCCCCc1ccccc1 | inactive
CCCCCCCCCCCCCCCO | inactive
Cc1ccc(C)c(O)c1 | inactive
CCOCCOCCOCCO | inactive
O=C(O)c1cccc(Oc2ccccc2)c1 | inactive
Oc1ccc2c(c1)-c1ccccc1C2 | inactive

Task item: Item under review: Cc1ccc(N)cc1O . Reported AC50?
Reply: inactive

Task item: Item under review: NC(=O)NO . Reported AC50?
Reply: inactive

Task item: Returns the measured AC50 for the input compound. Input: CN(C)c1ccc(Cc2ccc(N(C)C)cc2)cc1
Reply: inactive

Task item: Requested read-out: AC50. Entry: CCn1nc(Cc2ccccc2)cc1C1CCN(C[C@H]2C[C@H](N(C)[C@@H](C(=O)O)C(C)C)C[C@@H]2c2cccc(F)c2)CC1
Reply: inactive

Task item: I'd like to know its AC50. The compound in question is COC(=O)c1c(Cl)c(Cl)c(C(=O)OC)c(Cl)c1Cl
Reply: inactive

Task item: Any idea what its AC50 is? The compound is CC(=O)c1ccc2c(c1)[C@H](NC(=O)c1ccc(F)cc1)[C@@H](O)C(C)(C)O2
Reply: inactive

Task item: Item COCCOc1cc2cc(C(=O)NC3CCN(C(C)C)CC3)n(CC(=O)Nc3ccc(Cl)cn3)c2cn1 has what recorded AC50?
Reply: inactive

* * *

# experiment.description: APR_HepG2_MitoMembPot_24hr: Apredica 24-hour HepG2 Assay for Mitochondrial Membrane Potential (AID 2282911)
# measurement.setup: imaging, actives raise or lower the signal
Active and inactive are the calls of the source. How the source made its calls: active means hit-call score of the fitted dose curve at least 0.9, where 1 is the maximum; inactive means score below 0.9.
Returns: one label drawn from active, inactive

CC(C)=CCC/C(C)=C\CO | inactive
C[C@](N)(Cc1ccc(O)c(O)c1)C(=O)O | inactive
COc1cccc(-c2ccc(/C=C\CN3CCCCCC3)cc2Cl)c1 | inactive

Task item: # lookup: test call for CCCCC(CC)COC(=O)CCCCCCCCC(=O)OCC(CC)CCCC (stereo unspecified)
Reply: inactive

Task item: Query: recorded result category for COC(=O)c1c(Cl)c(Cl)c(C(=O)OC)c(Cl)c1Cl in this test
Reply: inactive

Task item: Could you kindly confirm the outcome this assay logged for COc1ccc(-n2nc(C(F)F)cc2-c2ccc(S(C)=O)cc2)cc1 (stereo unspecified) ?
Reply: active

* * *

# Read-out: catalase (CAT), CAT (gene 847)
# experiment.description: LTEA_HepaRG_CAT: Life Technologies and Expression Analysis (LTEA) Assay for catalase (CAT) using HepaRG (AID 2283452)
# measurement.setup: mRNA level, 48 h; actives raise or lower the signal
The source made the active and inactive calls. How the source made its calls: active means hit-call score of the fitted dose curve at least 0.9, where 1 is the maximum; inactive means score below 0.9.
I would appreciate it if you answered using one of these outcomes: active, inactive

Look over these answered cases.
CC[C@H]1OC(=O)[C@H](C)[C@@H](O[C@H]2C[C@@](C)(OC)[C@@H](O)[C@H](C)O2)[C@H](C)[C@@H](O[C@@H]2O[C@H](C)C[C@H](N(C)C)[C@H]2O)[C@](C)(O)C[C@@H](C)C(=O)[C@H](C)[C@@H](O)[C@]1(C)O | inactive
CC(C)=CCC/C(C)=C/CO | inactive
CCCCCCCCO | inactive
O=P(OC(CCl)CCl)(OC(CCl)CCl)OC(CCl)CCl | active
NC(=O)NO | inactive

Task item: Just curious, what result did COCCOc1cc2cc(C(=O)NC3CCN(C(C)C)CC3)n(CC(=O)Nc3ccc(Cl)cn3)c2cn1 get here?
Reply: active
